System: MS2 coat protein
Assay: apparent KD of MS2 coat protein; designed switch direction (-1 OFF switch, 1 ON switch): 1; higher = weaker reporter binding
Details: input ligand: microRNA oligo, concentration not stated
property measured: apparent KD of MS2 coat protein (nM)
Just the number in nM, nothing appended.

CGUCGUUUGAUAGGAUAUCGCUUUACAUGCGGAUCACCCAUGUUUACCACGCUGGUUUUUCUUUCCGAGAAGGAUUCUGAUGUU [salish99_SSNG02_r04_026] (Eterna round: R96, puzzle: Same State NG 2)	10.1

Please turn your attention to the following entry.
Can you look up the measured apparent KD of MS2 coat protein of GCCGCGUUUCGCGCCUACAUGAGGAUCACCCAUGUUUGUCGGCAGGAUAUCGUCCGCUCUGCGGGCGAGAAGGGCUAUUGUGGU [salish99_SSNG3_R04_027] (Eterna round: R96, puzzle: Same State NG 3) for me?
17
